system: sheep liver fluke (Fasciola hepatica); assay: Fluke egg count in faeces and adult fluke count in liver of infected sheep after a single s/c dose (Table 3); assay type: in vivo; details: single dose 6.0 mg/kg, day 7
Exercise: state measured FAECAL EGG COUNT, day 7 for each of the compounds provided.
Numbers only, in Eggs/g faeces.

Batch request: FAECAL EGG COUNT, day 7 per item, same order as input.
1. O=[N+]([O-])c1cc(Cl)cc(C(c2cc(Cl)cc([N+](=O)[O-])c2O)C(F)(F)F)c1O [Compound 53]
2. O=[N+]([O-])c1cc(Cl)cc(C(c2cc(Cl)cc([N+](=O)[O-])c2O)C(F)(F)C(F)(F)F)c1O [Compound 54]
3. O=[N+]([O-])c1cc(Br)cc(C(c2cc(Br)cc([N+](=O)[O-])c2O)C(F)(F)F)c1O [Compound 56]
4. O=[N+]([O-])c1cc(Cl)cc(C(OCc2cccc(F)c2)c2cc(Cl)cc([N+](=O)[O-])c2O)c1O [Compound 37]
5. O=[N+]([O-])c1cc(Cl)cc(C(c2cc(Cl)cc([N+](=O)[O-])c2O)C(F)(F)C(F)(F)C(F)(F)F)c1O [Compound 55]
6. CCOC(c1cc(Cl)cc([N+](=O)[O-])c1O)c1cc(Cl)cc([N+](=O)[O-])c1O [Compound 26]
7. O=[N+]([O-])c1cc(Cl)cc(C(OCc2ccc(F)cc2)c2cc(Cl)cc([N+](=O)[O-])c2O)c1O [Compound 40]
8. CC(C)COC(c1cc(Cl)cc([N+](=O)[O-])c1O)c1cc(Cl)cc([N+](=O)[O-])c1O [Compound 24]

*A*
[0, 0, 10, 0, 50, 130, 0, 20]

// FAECAL EGG COUNT, day 7 value for CC(c1cc(Cl)cc([N+](=O)[O-])c1O)c1cc(Br)cc([N+](=O)[O-])c1O (stereo not drawn) [Compound 8] : 20
